Known pIC50 of a selection of compounds
Assay target: Protein kinase C iota type (Homo sapiens, UniProt P41743)
Sequence (P41743 whole entry, the tested form may be a part): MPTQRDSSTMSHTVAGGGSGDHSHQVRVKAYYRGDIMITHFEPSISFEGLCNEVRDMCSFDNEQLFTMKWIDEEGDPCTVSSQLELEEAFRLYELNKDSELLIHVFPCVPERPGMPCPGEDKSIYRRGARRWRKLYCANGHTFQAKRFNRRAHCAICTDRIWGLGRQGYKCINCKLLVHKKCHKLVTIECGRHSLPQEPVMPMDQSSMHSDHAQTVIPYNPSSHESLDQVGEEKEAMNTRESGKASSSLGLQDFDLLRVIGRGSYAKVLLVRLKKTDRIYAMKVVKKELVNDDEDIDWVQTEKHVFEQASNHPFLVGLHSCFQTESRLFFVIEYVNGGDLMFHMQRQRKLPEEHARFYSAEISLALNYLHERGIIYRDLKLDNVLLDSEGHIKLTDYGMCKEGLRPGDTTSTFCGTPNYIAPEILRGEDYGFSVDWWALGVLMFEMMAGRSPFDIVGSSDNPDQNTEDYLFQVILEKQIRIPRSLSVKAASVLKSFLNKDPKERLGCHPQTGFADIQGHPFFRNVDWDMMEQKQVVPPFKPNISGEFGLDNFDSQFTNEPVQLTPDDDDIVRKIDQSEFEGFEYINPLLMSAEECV
Protocol description: Inhibition of recombinant human PKC-iota kinase domain expressed in Sf21 cells using FAM-PKCs pseudopeptide derived peptide substrate and 25 uM ATP by fluorescence polarization based IMAP assay
pIC50: −log10 of the molar value.
Quantity name: pIC50

Entry smiles: Cc1csc2nc(-c3ccncc3)nc(N3CCNCC3)c12
Quantity name: pIC50
Val: > 7.00

Entry smiles: Cc1ccc(CN2CCN(c3nc(-c4ccncc4)nc4sc5c(c34)CCCC5)CC2)cc1
Quantity name: pIC50
Val: ≤ 5.00

Entry smiles: C[C@H](N)CNc1nc(-c2ccncc2)nc2sc3c(c12)CCCC3
Quantity name: pIC50
Val: > 7.00

Entry smiles: Cc1csc2c(NC[C@@H](N)Cc3ccccc3)nc(-c3ccncc3)nc12
Quantity name: pIC50
Val: > 7.00

* * *

Assay target: Protein kinase C iota type (Homo sapiens)
Protocol description: Inhibition of recombinant full-length human PKC-iota expressed in Sf21 cells using FAM-PKCs pseudopeptide derived peptide substrate and 150 uM ATP by fluorescence polarization based IMAP assay
Known IC50 of a selection of molecules

Molecule: N[C@H](CNc1nc(-c2ccncc2)nc2c(-c3ccn[nH]3)csc12)Cc1ccccc1
Assay target: Protein kinase C iota type (Homo sapiens)
IC50: < 100 nM
//
Molecule: Cc1cc(-c2csc3c(NC[C@@H](N)Cc4ccccc4)nc(-c4ccncc4)nc23)n[nH]1
Assay target: Protein kinase C iota type (Homo sapiens)
IC50: < 100 nM
//
Molecule: CC(O)CC#Cc1csc2c(NC[C@@H](N)Cc3ccccc3)nc(-c3ccncc3)nc12 (some centres undefined)
Assay target: Protein kinase C iota type (Homo sapiens)
IC50: < 100 nM
//
Molecule: Cc1sc2c(NC[C@@H](N)Cc3ccccc3)nc(-c3ccncc3)nc2c1C#CC(C)(C)O
Assay target: Protein kinase C iota type (Homo sapiens)
IC50: < 100 nM
//
Molecule: N[C@H](CNc1nc(-c2ccncc2)nc2c(NC(=O)C3CCCC3)csc12)Cc1ccccc1
Assay target: Protein kinase C iota type (Homo sapiens)
IC50: ≥ 10000 nM
//
Molecule: N[C@H](CNc1nc(-c2ccncc2)nc2c(C#CCO)csc12)Cc1ccccc1
Assay target: Protein kinase C iota type (Homo sapiens)
IC50: < 100 nM
//
Molecule: N[C@H](CNc1nc(-c2ccncc2)nc2c(C#CC3CC3)csc12)Cc1ccccc1
Assay target: Protein kinase C iota type (Homo sapiens)
IC50: < 100 nM
//
Molecule: N[C@H](CNc1nc(-c2ccncc2)nc2c(Br)csc12)Cc1ccccc1
Assay target: Protein kinase C iota type (Homo sapiens)
IC50: < 100 nM
//
Molecule: N[C@H](CNc1nc(-c2ccncc2)nc2c(/C=C/C(=O)O)csc12)Cc1ccccc1
Assay target: Protein kinase C iota type (Homo sapiens)
IC50: ≤ 1000 nM

* * *

Assay target: Protein kinase C iota type (Homo sapiens)
Protocol description: Inhibition of recombinant full-length human PKC-iota expressed in Sf21 cells using FAM-PKCs pseudopeptide derived peptide substrate and 150 uM ATP by fluorescence polarization based IMAP assay
pIC50: −log10 of the molar value.
Known pIC50 of a selection of molecules
Quantity name: pIC50

Entry smiles: N[C@H](CNc1nc(-c2ccncc2)nc2c(Cl)csc12)Cc1ccccc1
Quantity name: pIC50
Val: > 7.00

Entry smiles: N[C@H](CNc1nc(-c2ccncc2)nc2c(-c3ccccc3Cl)c(C(F)(F)F)sc12)Cc1ccccc1
Quantity name: pIC50
Val: ≤ 5.00

Entry smiles: c1cc(-c2nc(N[C@@H]3CCNC3)c3scc(-c4ccn[nH]4)c3n2)ccn1
Quantity name: pIC50
Val: > 7.00

Entry smiles: F[C@H]1NCC[C@H]1Nc1nc(-c2ccncc2)nc2ccsc12
Quantity name: pIC50
Val: ≤ 5.00

Entry smiles: Cc1sc2c(NC[C@@H](N)Cc3ccccc3)nc(-c3ccncc3)nc2c1Br
Quantity name: pIC50
Val: > 7.00

Entry smiles: CC(C)S(=O)(=O)c1cccc(Nc2cc(-c3nc(N[C@@H]4CCNC4)c4sccc4n3)ccn2)c1
Quantity name: pIC50
Val: ≤ 6.00

Entry smiles: CC(C)(O)C#Cc1csc2c(NC[C@@H](N)Cc3ccccc3)nc(-c3ccncc3)nc12
Quantity name: pIC50
Val: > 7.00

Entry smiles: CC#Cc1csc2c(NC[C@@H](N)Cc3ccccc3)nc(-c3ccncc3)nc12
Quantity name: pIC50
Val: > 7.00

Entry smiles: CCC[C@@H](O)[C@H](O)C#Cc1csc2c(NC[C@@H](N)Cc3ccccc3)nc(-c3ccncc3)nc12
Quantity name: pIC50
Val: ≤ 6.00
